Test system: SW-620 colon
Experiment: NCI tumour cell line growth inhibition, 48 h
Task for the reader: assign each of the following molecules its reported TGI.
Give the quantity in µM, number only.

Which TGI is listed for CCC[CH2][Sn-]([CH2]CCC)([CH2]CCC)[O]C(=O)C(C)C ?
0.272

Request: Cc1ccccc1NC(=O)O/N=C(\Cl)C(C)C
4.36

Continue with COc1cc(C2CC(c3ccc(Nc4nc(NCCO)nc(NCCO)n4)cc3)=NN2c2cc(Cl)cc(Cl)c2)cc(OC)c1OC (stereo not given)
3.79

Please answer likewise for C=C1C(=O)O[C@@H]2/C=C(/C)[C@@H](OC(C)=O)C/C=C(\C)C(O)[C@@H](OC(=O)/C(C)=C\C)C12 (stereo not given in full)
30.1

Param item: CC1OC(OC2C(O[C@H]3CC[C@@]4(C)C(=CC[C@H]5[C@@H]6C[C@@H]7O[C@]8(CC[C@@H](C)CO8)[C@@H](C)[C@@H]7[C@@]6(C)CC[C@@H]54)C3)OC(CO)C(O)C2OC2OC(CO)C(O)C(O)C2O)C(O)C(O)C1O (stereo not given in full)
4.39

---

Test system: SF-539 CNS
Assay: NCI tumour cell line growth inhibition, 48 h
Measured attribute: log10(TGI) (log10 of the value in µM)
Each number you see is log10 of TGI, and the unit inside the log is µM.

Value lookup for log10(TGI); key = NC(N)=N/N=C\c1ccc(OCc2ccccc2)cc1
0.61

Consider next the compound CCOC(=O)Nc1ccc2nc(-c3cscn3)[nH]c2c1 in the same way.
1.31

Repeat with COc1cc2c(/C=C3/C(=O)Nc4ccccc43)c(Cl)n(Cc3ccc(Cl)cc3)c2cc1C
-0.18

Subsequent entry: CC(C)(C)C[C@H]1N[C@@H](C(=O)NC2CCC(O)CC2)[C@H](c2cccc(Cl)c2F)[C@@]12C(=O)Nc1cc(Cl)ccc12 (some centres undefined)
1.06

Now consider C1=CC(=P(c2ccccc2)(c2ccccc2)c2ccccc2)C=C1 and answer again.
1.46

Queued: O=S(=O)(NC1=NCCN1C(=S)SN1CCn2c1nsc2=S)c1ccc(Cl)cc1
0.49

Note, next up: CC(=O)Nc1ccc(C2CC(c3ccc([N+](=O)[O-])cc3)=Nc3ccccc3S2)cc1 (centres undefined)
1.53

Next entry: CC(=O)NC1C(OCc2ccccc2)OC(CO)C(O)C1OC(C)C(=O)N[C@@H](C)C(=O)N[C@H](CCC(=O)NCCNCCNc1c2ccccc2nc2cccc([N+](=O)[O-])c12)C(N)=O (some centres undefined)
0.00

Input COC1/C=C/C(C)C(O)CC(O)/C=C/C(C)C(C(C)C(OC)C(C)CCC(=O)C(C)C(C/C=C/N(C)C=O)OC)OC(=O)/C=C/C=C(\C)CC(OC)CC2=CC(=O)O[C@@H](C(C)C(OC)C1)[C@H]2O (some centres undefined)
-1.76

Same again, this time with CCCCCCCC/C=C/CCCCCCCC1=NC(C)(C)CN1C(C)(C)CO
0.52

Now consider O=c1c(-c2ccc3c(c2)OCO3)coc2c3c(ccc12)OCO3 .
1.77

Continue with O=C1c2cccc3cccc(c23)C(=O)N1CCCCCN1CCN(CCN=c2cc3n(-c4ccc(Cl)cc4)c4ccccc4nc-3cc2Nc2ccc(Cl)cc2)CC1
1.49

Same for CSc1nc(Nc2cccc(NC(=O)CCl)c2)c(C#N)c(-c2cccc([N+](=O)[O-])c2)n1
-0.28

Now give it for Cn1c(I)c(C#C[Si](C)(C)C)c(=O)n(C(=O)c2ccccc2)c1=O too.
1.08

How about C=C1CCC[C@@H](C)C(O)[C@@H]2OC(=O)C(=C)[C@@H]2C[C@@H](OC(C)=O)[C@@]2(C)CC[C@@H]1O2 (some centres undefined) ?
1.18

Next compound up: Cc1nnc2n1N=C(c1ccccc1)C(c1ccccc1)S2 (centres undefined)
1.86

---

Tested on: U251 CNS
Test: NCI tumour cell line growth inhibition, 48 h
Measured attribute: TGI (µM)
Write the value in µM as a bare number.

Name the recorded TGI for O=C1CC23CCCCCCCCCCC2(C1)CC(=O)C3 (stereo unspecified) .
75.6

Same question, OCc1ccc(N(Cc2ccc(F)cc2)Cc2ccc(F)cc2)cc1Cl this time
19.4

Field entry: COc1ccc(-c2ccc(C(=O)C=P(c3ccccc3)(c3ccccc3)c3ccccc3)cc2)cc1
31.9

Can you check CSc1nc(Nc2cccc(NC(=O)CCl)c2)c(C#N)c(-c2cccc([N+](=O)[O-])c2)n1 next?
3.13

Lookup CC(=O)C(=Cc1cn(C)c(=O)n(C)c1=O)C(C)=O
223

COc1cc2c(/C=C3\C(=O)Nc4ccccc43)c[nH]c2cc1C ?
4.82

Param item: C/C(=N/NC(=S)Nc1ccccc1)c1nc2ccc(Cl)cc2[nH]1
1.02

Same again, this time with C=C1CCC[C@@H](C)C(O)[C@@H]2OC(=O)C(=C)[C@@H]2C[C@@H](OC(C)=O)[C@@]2(C)CC[C@@H]1O2 (stereo partly specified)
17.8

Further, for CC1=NN(C(=O)CC(=O)Nc2cccc(C)c2)C(=O)C1N=Nc1ccc(S(=O)(=O)CCOS(=O)(=O)O)cc1 (stereo unspecified) ?
13.6

Next: CCN(CC)C(=S)SC(C(=O)Nc1nnc(-c2ccc(Cl)cc2)o1)c1ccccc1 (stereo unspecified)
65.3

Also check Clc1ccc2c(c1)N(CCCN1CCCC13CCCCC3)c1ccccc1S2
23.6

---

Tested on: KM12 colon
Test: NCI tumour cell line growth inhibition, 48 h
Measured attribute: TGI (µM)
Kindly provide the numeric value in µM only, without the unit symbol.

Using the record for Cc1ccccc1NC(=O)O/N=C(\Cl)C(C)C , report its TGI.
36.2

Moving on to the next compound: CSc1nc(Nc2cccc(NC(=O)CCl)c2)c(C#N)c(-c2cccc([N+](=O)[O-])c2)n1
3.92

Same thing, different compound: COC1/C=C/C(C)C(O)CC(O)/C=C/C(C)C(C(C)C(OC)C(C)CCC(=O)C(C)C(C/C=C/N(C)C=O)OC)OC(=O)/C=C/C=C(\C)CC(OC)CC2=CC(=O)O[C@@H](C(C)C(OC)C1)[C@H]2O (some centres undefined)
1.15

One more compound: COc1cc2c(/C=C3/C(=O)Nc4ccccc43)c(Cl)n(Cc3ccc(Cl)cc3)c2cc1C
1.02

---

For each entry below, report its TGI value.
Tested on: MCF7 breast
Assay: NCI tumour cell line growth inhibition, 48 h

Which TGI is listed for CC(Nc1ccc(Cl)cc1)c1ccncc1 (stereo not drawn) ?
> 100 µM

Now the compound COc1cc2c(cc1O)C1Cc3ccc(OC)c(O)c3C[N+]1(C)CC2 (stereo not drawn)
> 100 µM

What do you have for [N-]=[N+]=CC(=O)CCC(N)C(=O)O (stereo not drawn) ?
> 250 µM

O=C1/C(=C/c2ccccc2)Oc2cc(O)ccc21 , same question.
> 100 µM

Here is the next compound: CN(C)CCC(=O)Nc1ccc(-n2cc(-c3cccc(NC(=S)Nc4cccc(-c5cn(-c6ccc(NC(=O)CCN(C)C)cc6)nn5)c4)c3)nn2)cc1
40.3 µM

Next: CCOC(=O)c1c(N)sc2c1C(C(=O)OCC)CCCC2 (stereo not drawn)
> 100 µM

Next up: COc1ccc(CCNC(=O)Cc2ccccc2CO)cc1OC
> 100 µM

Quick one: C/C(=N\Nc1nc2ccccc2s1)c1ccncn1
> 100 µM

Same again, this time with OCc1ccc(N(Cc2ccc(F)cc2)Cc2ccc(F)cc2)cc1Cl
17 µM

Field entry: Cc1cccc(C2NC(=O)c3ccccc3N2)c1 (stereo not drawn)
> 100 µM

Now give it for COC1(CC[C@@H](C)COC2OC(CO)C(O)C(O)C2O)OC2C[C@H]3[C@@H]4CC[C@H]5C[C@@H](OC6OC(CO)C(OC7OC(CO)C(O)C(O)C7O)C(O)C6OC6OC(C)C(O)C(O)C6O)[C@H](O)C[C@]5(C)[C@H]4CC[C@]3(C)C2[C@@H]1C (stereo partly drawn) too.
7.84 µM

And the next one, COc1cc(C2CC(c3ccc(Nc4nc(NCCO)nc(NCCO)n4)cc3)=NN2c2cc(Cl)cc(Cl)c2)cc(OC)c1OC (stereo not drawn) ?
2.94 µM

Now consider CC(C)CCCC(C)[C@H]1CCC(C2C[C@@H](O)[C@@H]3CC(O)[C@@H](O)C[C@]3(CO)C2=O)[C@]1(C)CCO (stereo partly drawn) and answer again.
20.4 µM

---

System: SK-MEL-2 melanoma
Assay: NCI tumour cell line growth inhibition, 48 h
Could you label it 1 (yes) if measured TGI is 20 µM or higher, and 0 (no) otherwise?

# bool: TGI of COc1ccc(-c2ccc(CC(=O)O)cc2)cc1OC >= 20 µM
1 (yes)

What about CCCC(=O)O[C@]1(C)CC[C@@H]2[C@H]3[C@@H]1[C@@H]1C[C@@](C)(O)[C@H](OC)CC[C@](C)(OC(=O)[C@@H]2C)[C@H]3O1 ?
1 (yes)

Next up: O=C(Nc1ccc(Cl)cc1C(F)(F)F)C(=O)Nn1c(=S)[nH]c2ccccc2c1=O
1 (yes)

Can you check Nc1[nH]c(=O)nc2c1ncn2C1OC(CO)C(O)C1O (stereo unspecified) next?
1 (yes)

Please answer likewise for c1cnc2c(c1)-n1cccc1C1(CCCCC1)NN2
1 (yes)

Same question, CC(=O)C(=Cc1cn(C)c(=O)n(C)c1=O)C(C)=O this time
1 (yes)

Next molecule: C=C(Br)CN=CN(C)C
1 (yes)

Same for C/C(=N/NC(=S)Nc1ccccc1)c1nc2ccc(Cl)cc2[nH]1
0 (no)

Now consider C[C@H]1S[C@@H](c2ccc(Cl)cc2Cl)N(NC(=O)c2ccncc2)C1=O .
1 (yes)

Can you check COC(=O)c1c2c(cc3c1CC1(Cc4cc5c(c(C=O)c4C1)CCC5)C3)CCC2 (stereo unspecified) next?
1 (yes)

Do the same for O=S(=O)(NC1=NCCN1C(=S)SN1CCn2c1nsc2=S)c1ccc(Cl)cc1 please
1 (yes)

Now give it for C=C1CCC[C@@H](C)C(O)[C@@H]2OC(=O)C(=C)[C@@H]2C[C@@H](OC(C)=O)[C@@]2(C)CC[C@@H]1O2 (stereo partly specified) too.
0 (no)

Moving on to O=C(O)C(Cc1ccccc1)NCc1c(O)ccc2c(-c3ccccc3)cc(=O)oc12 (stereo unspecified)
1 (yes)

Next: COc1cc(N2C(=O)[C@H](Cl)C2c2ccc(SC)cc2)cc(OC)c1OC (stereo partly specified)
1 (yes)

Also need CCC[CH2][Sn-]([CH2]CCC)([CH2]CCC)[O]C(=O)C(C)C , thanks.
0 (no)

Request: O=C1NC(O)n2c(=O)[nH]c(=O)n21 (stereo unspecified)
1 (yes)

Moving on to the next molecule: COc1nc(Cl)nc(N[C@H](C)c2c3ccccc3cc3ccccc23)n1
1 (yes)

Also COc1ccc(CCNC(=O)Cc2ccccc2CO)cc1OC ?
1 (yes)

Quick one: O=C(CC1=Nc2nnc(CCCCCCCc3nnc4n3C(=O)C(CC(=O)c3ccc5ccccc5c3)=N4)n2C1=O)c1ccc2ccccc2c1
1 (yes)

# iterate: O=C1C(=O)c2c(nc3ccc(C(F)(F)F)cn23)-c2ccccc21
0 (no)
